The measured values listed here are drawn from patent US20090181408A1.

Test system: FAD-GDH derived from Aspergillus oryzae IAM2603
test.summary: Substrate specificity 2, relative activity (PMS/DCIP)
Assay type: biochemical
protocol.conditions: activity with D-glucose assumed 100%; dialyzed culture filtrate; MOPS pH 7.0, 25° C.
readout.type: relative activity, IAM2603
Give the number first and the unit second.

Worked examples follow.
compound	relative activity, IAM2603
O=C(CO)[C@@H](O)[C@H](O)[C@H](O)CO [fructose]	0%
O=C[C@H](O)[C@@H](O)[C@H](O)CO [xylose]	16.1%
O=CC[C@@H](O)[C@H](O)[C@H](O)CO [2-deoxyglucose]	29.0%

// recorded relative activity, IAM2603 for OC[C@H]1O[C@H](O[C@H]2[C@H](O)[C@@H](O)C(O)O[C@@H]2CO)[C@H](O)[C@@H](O)[C@@H]1O (mixture of isomers) [maltose] : 0%

---

Test system: FAD-GDH derived from Aspergillus oryzae IAM2706
test.summary: Substrate specificity 2, relative activity (PMS/DCIP)
Assay type: biochemical
protocol.conditions: activity with D-glucose assumed 100%; dialyzed culture filtrate; MOPS pH 7.0, 25° C.
readout.type: relative activity, IAM2706 (%)
Answers are plain numbers, in %.

The following compounds have reported results that may help.
compound	test.target	unit.symbol	relative activity, IAM2706
O=CC[C@@H](O)[C@H](O)[C@H](O)CO	FAD-GDH derived from Aspergillus oryzae IAM2706	%	33.9
O=C[C@H](O)[C@@H](O)[C@H](O)CO	FAD-GDH derived from Aspergillus oryzae IAM2706	%	16.1
O=C(CO)[C@@H](O)[C@H](O)[C@H](O)CO	FAD-GDH derived from Aspergillus oryzae IAM2706	%	0

// assay FAD-GDH derived from Aspergillus oryzae IAM2706, entry OC[C@H]1O[C@H](O[C@H]2[C@H](O)[C@@H](O)C(O)O[C@@H]2CO)[C@H](O)[C@@H](O)[C@@H]1O (mixture of isomers) , relative activity, IAM2706 value = 0

---

Task for the reader: assign each of the following molecules its reported relative activity, BB-56.
Tested on: FAD-GDH derived from Aspergillus oryzae BB-56
test.summary: Substrate specificity 2, relative activity (PMS/DCIP)
Assay type: biochemical
protocol.conditions: activity with D-glucose assumed 100%; dialyzed culture filtrate; MOPS pH 7.0, 25° C.

Example molecules with recorded relative activity, BB-56:
molecule	result
OC[C@H]1O[C@H](O[C@H]2[C@H](O)[C@@H](O)C(O)O[C@@H]2CO)[C@H](O)[C@@H](O)[C@@H]1O (mixture of isomers)	0%
O=CC[C@@H](O)[C@H](O)[C@H](O)CO	35.1%
O=C(CO)[C@@H](O)[C@H](O)[C@H](O)CO	0%

# next molecule below
In plain terms, O=C[C@H](O)[C@@H](O)[C@H](O)CO has a documented relative activity, BB-56 of 17.6%
